# SYSTEM: Adenosine receptor A1 (Rattus norvegicus, UniProt P25099)
# RUN DESCRIPTION: Binding affinity against adenosine A1 receptor in rat cortex by the displacement of [3H]cyclohexyladenosine (CHA).
# Assay type: tissue-based
MEASURED ENDPOINT: Ki (nM)

- COMPOUND STRING: "CCCn1c(=O)c2nc(-c3ccc(C#N)cc3)[nH]c2n(C)c1=O"
  SYSTEM: "Adenosine receptor A1 (Rattus norvegicus, UniProt P25099)"
  MEASURED ENDPOINT: "Ki"
  RESULT VALUE: 5.95
- COMPOUND STRING: "CCCn1c(=O)n(C)c(=O)c2[nH]c(C3CCCCC3)nc21"
  SYSTEM: "Adenosine receptor A1 (Rattus norvegicus, UniProt P25099)"
  MEASURED ENDPOINT: "Ki"
  RESULT VALUE: 1.81
- COMPOUND STRING: "CCCn1c(=O)n(C)c(=O)c2[nH]c(-c3cccs3)nc21"
  SYSTEM: "Adenosine receptor A1 (Rattus norvegicus, UniProt P25099)"
  MEASURED ENDPOINT: "Ki"
  RESULT VALUE: 8.93
- COMPOUND STRING: "CCCn1c(=O)c2nc(-c3ccsc3)[nH]c2n(CCC)c1=O"
  SYSTEM: "Adenosine receptor A1 (Rattus norvegicus, UniProt P25099)"
  MEASURED ENDPOINT: "Ki"
  RESULT VALUE: 2.04
- COMPOUND STRING: "CCCn1c(=O)c2nc(CCc3ccccc3)[nH]c2n(C)c1=O"
  SYSTEM: "Adenosine receptor A1 (Rattus norvegicus, UniProt P25099)"
  MEASURED ENDPOINT: "Ki"
  RESULT VALUE: 275
- COMPOUND STRING: "CCCn1c(=O)c2nc(-c3ccc(O)cc3)[nH]c2n(C)c1=O"
  SYSTEM: "Adenosine receptor A1 (Rattus norvegicus, UniProt P25099)"
  MEASURED ENDPOINT: "Ki"
  RESULT VALUE: 1.28

[A] CCCn1c(=O)c2nc(-c3ccncc3)[nH]c2n(CCC)c1=O
[B] CCCn1c(=O)n(C)c(=O)c2[nH]c(C3CCCC3)nc21
Param pair: A , B . Output: the one whose Ki is numerically greater. State your choice using its label. A
(A: 3.23 nM, B: 0.85 nM)

====

# SYSTEM: Adenosine receptor A1 (Rattus norvegicus)
# Sequence (P25099 whole entry): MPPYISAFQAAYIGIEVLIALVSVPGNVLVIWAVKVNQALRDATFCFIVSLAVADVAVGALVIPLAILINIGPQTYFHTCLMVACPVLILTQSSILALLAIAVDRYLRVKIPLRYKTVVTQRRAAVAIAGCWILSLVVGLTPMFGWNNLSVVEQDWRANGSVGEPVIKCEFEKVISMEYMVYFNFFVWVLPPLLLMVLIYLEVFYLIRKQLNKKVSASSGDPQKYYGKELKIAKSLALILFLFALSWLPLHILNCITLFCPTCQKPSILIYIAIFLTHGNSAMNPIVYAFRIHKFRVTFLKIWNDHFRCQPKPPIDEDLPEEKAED
# RUN DESCRIPTION: Binding affinity against adenosine A1 receptor in rat cortex by the displacement of [3H]cyclohexyladenosine (CHA).
# Assay type: tissue-based
pKi: −log10 of the molar value.
MEASURED ENDPOINT: pKi

- COMPOUND STRING: "CCCn1c(=O)n(C)c(=O)c2[nH]c(CCc3ccccc3)nc21"
  SYSTEM: "Adenosine receptor A1 (Rattus norvegicus)"
  pKi: 6.59
- COMPOUND STRING: "CCCn1c(=O)n(C)c(=O)c2[nH]c(-c3ccncc3)nc21"
  SYSTEM: "Adenosine receptor A1 (Rattus norvegicus)"
  pKi: 7.66
- COMPOUND STRING: "CCCn1c(=O)n(C)c(=O)c2[nH]c(-c3ccc(O)cc3)nc21"
  SYSTEM: "Adenosine receptor A1 (Rattus norvegicus)"
  pKi: 8.60

[a] CCCn1c(=O)c2nc(CCc3ccccc3)[nH]c2n(CCC)c1=O
[b] CCCn1c(=O)c2nc(C3CCCCC3)[nH]c2n(C)c1=O
[c] CCCn1c(=O)c2nc(C3CCCC3)[nH]c2n(C)c1=O
[d] CCCn1c(=O)c2nc(-c3ccncc3)[nH]c2n(C)c1=O
[e] CCCn1c(=O)c2nc(-c3ccc(O)cc3)[nH]c2n(CCC)c1=O
Sort ascending by pKi. Reply: labels, ordered per the request. a, d, b, c, e
(a: 7.24, d: 7.56, b: 8.30, c: 8.97, e: 9.20)

[1] CCCn1c(=O)c2nc(/C=C/c3ccccc3)[nH]c2n(C)c1=O
[2] CCCn1c(=O)c2nc(-c3ccc(C#N)cc3)[nH]c2n(CCC)c1=O
[3] CCCn1c(=O)n(C)c(=O)c2[nH]c(-c3ccc(C#N)cc3)nc21
Thanks in advance: please rank these 3 entries by pKi, highest to lowest. Reply: labels, ordered per the request. 2, 3, 1
